- Tested on: Klebsiella aerogenes
- test-protocol: Antibacterial activity against Enterobacter aerogenes ATCC 13048 after 18 hrs by CLSI broth microdilution method
- Assay type: functional
- measurement-context: ATCC 13048, 18 h
observation-type: MIC (µg/mL)
Reply numerically in µg/mL, unit not repeated.

>>> numeric_value("CN1CCC2(CC1)CCN(C(=N)c1ccc3cc(-c4ccc(-c5cc6ccc(C(=N)N7CCC8(CCN(C)CC8)C7)cc6[nH]5)cc4)[nH]c3c1)C2")
16
>>> numeric_value("N=C(c1ccc2cc(-c3ccc(-c4cc5ccc(C(=N)N6CC=CC6)cc5[nH]4)cc3)[nH]c2c1)N1CC=CC1")
8
>>> numeric_value("CCNC(=N)c1ccc2cc(-c3ccc(-c4cc5ccc(C(=N)NCC)cc5[nH]4)cc3)[nH]c2c1")
16
>>> numeric_value("CC(C)NC(=N)c1ccc2cc(-c3ccc(-c4cc5ccc(C(=N)NC(C)C)cc5[nH]4)cc3)[nH]c2c1")
4

Which measured MIC value corresponds to c1cc2cc(-c3ccc(-c4cc5ccc(C6=NCCCN6)cc5[nH]4)cc3)[nH]c2cc1C1=NCCCN1 ?
8

Item under review: CN(C)C(=N)c1ccc2cc(-c3cnc(-c4cc5ccc(C(=N)N(C)C)cc5[nH]4)s3)[nH]c2c1 . Reported MIC?
4

====

# key: entry, value: MIC
- Test system: Pseudomonas aeruginosa
- test-protocol: Antibacterial activity against Pseudomonas aeruginosa ATCC 27853 after 18 hrs by CLSI broth microdilution method
- Type: functional
- measurement-context: ATCC 27853, 18 h

>>> result("CCC(C)NC(=N)c1ccc2cc(-c3cncc(-c4cc5ccc(C(=N)NC(C)CC)cc5[nH]4)c3)[nH]c2c1 (stereo unspecified)")
"> 64 µg/mL"

Given the entry N=C(c1ccc2cc(-c3ccc(-c4cc5ccc(C(=N)N6CCCC6)cc5[nH]4)cc3)[nH]c2c1)N1CCCC1 , report its measured MIC.
> 128 µg/mL

====

# MIC annotations
- Tested on: Staphylococcus epidermidis
- test-protocol: Antibacterial activity against methicillin-sensitive Staphylococcus epidermidis 12-6 after 18 hrs by CLSI broth microdilution method
- Assay type: functional
- measurement-context: 12-6, 18 h
State just the number; it will be interpreted in µg/mL.

>>> numeric_value("N=C(c1ccc2cc(-c3ccc(-c4cc5ccc(C(=N)N6CCCC6)cc5[nH]4)cc3)[nH]c2c1)N1CCCC1")
0.25

Need MIC, item CCC(C)NC(=N)c1ccc2cc(-c3cncc(-c4cc5ccc(C(=N)NC(C)CC)cc5[nH]4)c3)[nH]c2c1 (stereo not given)
8

====

Catalogue of MIC readings, one per entry.
- Test system: Escherichia coli
- test-protocol: Antibacterial activity against extended-spectrum beta-lactamase deficient Escherichia coli 12-14 after 18 hrs by CLSI broth microdilution method
- Type: functional
- measurement-context: 12-14, 18 h
Please give a number only; it is taken to be in µg/mL.

Consider the reported MIC for these compounds:
>>> numeric_value("CN1CCC2(CC1)CCN(C(=N)c1ccc3cc(-c4ccc(-c5cc6ccc(C(=N)N7CCC8(CCN(C)CC8)C7)cc6[nH]5)cc4)[nH]c3c1)C2")
16
>>> numeric_value("CC(C)NC(=N)c1ccc2cc(-c3ccc(-c4cc5ccc(C(=N)NC(C)C)cc5[nH]4)cc3)[nH]c2c1")
4

// moving on: another record for MIC
Enter reported MIC observed with Escherichia coli for CCC(CC)NC(=N)c1ccc2cc(-c3ccc(-c4cc5ccc(C(=N)NC(CC)CC)cc5[nH]4)cc3)[nH]c2c1
8

====

- System: Escherichia coli
- test-protocol: Antibacterial activity against extended-spectrum beta-lactamase deficient Escherichia coli 12-14 after 18 hrs by CLSI broth microdilution method
- Format: functional
- measurement-context: 12-14, 18 h
observation-type: MIC (µg/mL)
Report the value in µg/mL with no unit label.

>>> numeric_value("N=C(c1ccc2cc(-c3ccc(-c4cc5ccc(C(=N)N6CCOCC6)cc5[nH]4)cc3)[nH]c2c1)N1CCOCC1")
4

Form field - read-out: MIC; system: Escherichia coli; submitted item: c1cc2cc(-c3ccc(-c4cc5ccc(C6=NCCCN6)cc5[nH]4)cc3)[nH]c2cc1C1=NCCCN1
4

Provide value of MIC for this record tested with Escherichia coli: N=C(c1ccc2cc(-c3ccc(-c4cc5ccc(C(=N)N6CC=CC6)cc5[nH]4)cc3)[nH]c2c1)N1CC=CC1
16

Lab request: please report MIC under test system Escherichia coli for CN(C)C(=N)c1ccc2cc(-c3ccc(Oc4ccc(-c5cc6ccc(C(=N)N(C)C)cc6[nH]5)cc4)cc3)[nH]c2c1
8

Observed MIC on Escherichia coli for COCCNC(=N)c1ccc2cc(-c3ccc(-c4cc5ccc(C(=N)NCCOC)cc5[nH]4)cc3)[nH]c2c1 , please.
2

====

- System: Escherichia coli
- test-protocol: Antibacterial activity against extended-spectrum beta-lactamase deficient Escherichia coli 12-14 after 18 hrs by CLSI broth microdilution method
- Type: functional
- measurement-context: 12-14, 18 h
MIC values for the compounds below.

Would you please look over these solved cases?
>>> result("CN(C)C(=N)c1ccc2cc(-c3cncc(-c4cc5ccc(C(=N)N(C)C)cc5[nH]4)c3)[nH]c2c1")
"1 µg/mL"
>>> result("CC(C)NC(=N)c1ccc2cc(-c3cncc(-c4cc5ccc(C(=N)NC(C)C)cc5[nH]4)c3)[nH]c2c1")
"> 64 µg/mL"
>>> result("CN(C)C(=N)c1ccc2cc(-c3cccc(-c4cc5ccc(C(=N)N(C)C)cc5[nH]4)c3)[nH]c2c1")
"64 µg/mL"

I have this compound here, CN(C)CCNC(=N)c1ccc2cc(-c3ccc(-c4cc5ccc(C(=N)NCCN(C)C)cc5[nH]4)cc3)[nH]c2c1 , and I need its recorded MIC.
8 µg/mL

What does the data say about its MIC? Entry: CN(C)C(=N)c1ccc2cc(-c3cnc(-c4cc5ccc(C(=N)N(C)C)cc5[nH]4)s3)[nH]c2c1
2 µg/mL

Would you mind telling me what MIC value was observed for CN(C)C(=N)c1ccc2cc(-c3ccc(-c4cc5ccc(C(=N)N(C)C)cc5[nH]4)cc3)[nH]c2c1 ?
1 µg/mL

Param item = CCN(C)C(=N)c1ccc2cc(-c3ccc(-c4cc5ccc(C(=N)N(C)CC)cc5[nH]4)cc3)[nH]c2c1 ; retrieve measured MIC.
2 µg/mL

What does the data say about its MIC? Entry: CN(C)C(=N)c1ccc2cc(-c3ccc4ccc(-c5cc6ccc(C(=N)N(C)C)cc6[nH]5)cc4c3)[nH]c2c1
> 128 µg/mL

====

Readings of MIC for the listed molecules
- System: Klebsiella pneumoniae
- test-protocol: Antibacterial activity against extended-spectrum beta-lactamase deficient Klebsiella pneumoniae 12-4 after 18 hrs by CLSI broth microdilution method
- Format: functional
- measurement-context: 12-4, 18 h
Kindly provide the numeric value in µg/mL only, without the unit symbol.

For orientation, consider the following solved cases.
>>> numeric_value("CN(C)C(=N)c1ccc2cc(-c3ccc(-c4cc5ccc(C(=N)N(C)C)cc5[nH]4)cc3)[nH]c2c1")
4
>>> numeric_value("N=C(c1ccc2cc(-c3ccc(-c4cc5ccc(C(=N)N6CCCC6)cc5[nH]4)cc3)[nH]c2c1)N1CCCC1")
8
>>> numeric_value("CCC(CC)NC(=N)c1ccc2cc(-c3ccc(-c4cc5ccc(C(=N)NC(CC)CC)cc5[nH]4)cc3)[nH]c2c1")
8

Bench note: what MIC did N=C(c1ccc2cc(-c3ccc(-c4cc5ccc(C(=N)N6CC=CC6)cc5[nH]4)cc3)[nH]c2c1)N1CC=CC1 show?
16

Recorded MIC of CN(C)C(=N)c1ccc2cc(-c3ccc(-c4cc5ccc(C(=N)N(C)C)cc5[nH]4)nc3)[nH]c2c1 , please.
32

What value of measured MIC is listed for CCN(C)C(=N)c1ccc2cc(-c3ccc(-c4cc5ccc(C(=N)N(C)CC)cc5[nH]4)cc3)[nH]c2c1 ?
4

GET /values?readout=MIC&item= CN(C)C(=N)c1ccc2cc(-c3ccc(Oc4ccc(-c5cc6ccc(C(=N)N(C)C)cc6[nH]5)cc4)cc3)[nH]c2c1
8

====

Form field: log10 MIC (one value per entry).
- Test system: Enterococcus faecium
- test-protocol: Antibacterial activity against vancomycin-resistant Enterococcus faecium ATCC 700221 after 18 hrs by CLSI broth microdilution method
- Format: functional
- measurement-context: ATCC 700221, 18 h
// do not treat as linear: log10 of MIC, unit µg/mL

Please review the entries below; each comes with its answer.
>>> numeric_value("CN(C)C(=N)c1ccc2cc(-c3cncc(-c4cc5ccc(C(=N)N(C)C)cc5[nH]4)c3)[nH]c2c1")
0.30
>>> numeric_value("N=C(c1ccc2cc(-c3ccc(-c4cc5ccc(C(=N)N6CC=CC6)cc5[nH]4)cc3)[nH]c2c1)N1CC=CC1")
1.20
>>> numeric_value("CCC(C)NC(=N)c1ccc2cc(-c3ccc(-c4cc5ccc(C(=N)NC(C)CC)cc5[nH]4)cc3)[nH]c2c1 (stereo not drawn)")
0.30
>>> numeric_value("CN(C)C(=N)c1ccc2cc(-c3cnc(-c4cc5ccc(C(=N)N(C)C)cc5[nH]4)cn3)[nH]c2c1")
0.60
>>> numeric_value("CN(C)C(=N)c1ccc2cc(-c3ccc(-c4cc5ccc(C(=N)N(C)C)cc5[nH]4)nc3)[nH]c2c1")
0.60
>>> numeric_value("CC(C)NC(=N)c1ccc2cc(-c3ccc(-c4cc5ccc(C(=N)NC(C)C)cc5[nH]4)cc3)[nH]c2c1")
-0.60

Next:
Value lookup for log10 MIC; key = CCNC(=N)c1ccc2cc(-c3ccc(-c4cc5ccc(C(=N)NCC)cc5[nH]4)cc3)[nH]c2c1
0.00
